Biological target: β2 receptors
Test: Inhibition of 3H-DHA (dihydroalprenolol) binding to β2 receptors
Details: read-out: IC50 β2 (inhibition of H^3-DHA binding); [3H]dihydroalprenolol binding, β2
pIC50: −log10 of the molar value.
Reported pIC50 values for a set of molecules
property: pIC50

[[record]]
molecule = "N#Cc1ccccc1OCC(O)CNCCN1C(=O)CN(c2ccccc2)C1=O (centres unmarked) [Ic]"
system_name = "β2 receptors"
property = "pIC50"
quantitative_readout = 5.03

[[record]]
molecule = "COc1ccc(N2CC(=O)N(CCNCC(O)COc3ccccc3C#N)C2=O)cc1OC (centres unmarked) [Ii]"
system_name = "β2 receptors"
property = "pIC50"
quantitative_readout = 6.40


###

Target: β2 (guinea pig trachea) (Cavia porcellus)
Sequence (Q8K4Z4 whole entry): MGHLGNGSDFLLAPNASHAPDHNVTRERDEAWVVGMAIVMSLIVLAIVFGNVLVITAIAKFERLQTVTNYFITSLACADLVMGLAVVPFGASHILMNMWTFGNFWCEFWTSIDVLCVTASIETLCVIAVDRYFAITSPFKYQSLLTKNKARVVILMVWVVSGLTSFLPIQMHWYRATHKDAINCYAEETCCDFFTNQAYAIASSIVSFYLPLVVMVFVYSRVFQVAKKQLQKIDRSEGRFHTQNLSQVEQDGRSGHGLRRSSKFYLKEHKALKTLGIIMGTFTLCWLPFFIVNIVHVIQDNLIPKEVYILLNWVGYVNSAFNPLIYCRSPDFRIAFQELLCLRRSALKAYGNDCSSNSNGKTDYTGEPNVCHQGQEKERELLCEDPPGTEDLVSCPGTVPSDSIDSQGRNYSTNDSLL
Assay: cell-based
Set-up: species or system guinea pig (Hartley albino)
Settings: read-out: β-Blocking activity in vitro IC50, Trachea β2 × 10^-7
Description: Hartley albino guinea pigs of 450 g average weight were used. The atria and the trachea have been suspended respectively in Ringer oxygenated solution at 32° C., and in Krebs carboxygenated solution medicated with pilocarpine, at 37° C. […] The percent inhibitions of the chronotropic and positive inotropic effect (atria) and of relaxation (trachea) were evaluated and the IC50 values were calculated therefrom.
pIC50: −log10 of the molar value. Counter-ions that a name gives are not always drawn.
property: pIC50

[[record]]
compound = "COc1ccc(N2CC(=O)N(CCNCC(O)COc3ccccc3C#N)C2=O)cc1.Cl (stereo not shown) [Il, hydrochloride]"
result_qualifier = "="
quantitative_readout = 6.44

[[record]]
compound = "Cl.N#Cc1ccccc1OCC(O)CNCCN1C(=O)CN(c2ccc3c(c2)OCO3)C1=O (stereo not shown) [Im, hydrochloride]"
result_qualifier = "="
quantitative_readout = 6.11

[[record]]
compound = "N#Cc1ccccc1OC[C@@H](O)CNCCN1C(=O)CN(c2ccccc2)C1=O [Ic(S), hydrochloride]"
result_qualifier = "="
quantitative_readout = 6.22

[[record]]
compound = "N#Cc1ccccc1OC[C@H](O)CNCCN1C(=O)CN(c2ccccc2)C1=O [Ic(R), hydrochloride]"
result_qualifier = "<"
quantitative_readout = 4.00


###

Target: β1 (guinea pig atria) (Cavia porcellus, UniProt H0W3H1)
Construct: The atria and the trachea have been suspended respectively in Ringer oxygenated solution; from tissue; host or cells: isolated atria of Hartley albino guinea pigs
Sequence (H0W3H1 1-470): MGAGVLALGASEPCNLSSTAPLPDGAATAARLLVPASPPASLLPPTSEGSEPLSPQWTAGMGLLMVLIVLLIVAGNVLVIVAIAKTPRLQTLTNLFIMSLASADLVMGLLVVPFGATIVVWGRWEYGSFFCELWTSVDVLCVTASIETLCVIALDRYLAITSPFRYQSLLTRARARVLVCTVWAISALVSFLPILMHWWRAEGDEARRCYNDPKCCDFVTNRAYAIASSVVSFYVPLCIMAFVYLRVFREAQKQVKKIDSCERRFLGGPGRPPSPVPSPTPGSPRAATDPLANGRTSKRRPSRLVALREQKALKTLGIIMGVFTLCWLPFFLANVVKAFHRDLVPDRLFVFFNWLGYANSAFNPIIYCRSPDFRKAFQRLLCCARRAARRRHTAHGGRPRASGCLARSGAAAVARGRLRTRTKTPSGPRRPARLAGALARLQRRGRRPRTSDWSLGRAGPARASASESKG
Experiment: In vitro β-blocking activity, guinea pig atria stimulated with isopropylnoradrenaline (INA)
Format: cell-based, guinea pig (Hartley albino)
Settings: β-Blocking activity in vitro IC50, Atria inotropism × 10^-7, guinea pig atria, β1, positive inotropic effect; INA 10^-8 M, 32° C.
property: IC50 (nM)

[[record]]
compound = "CC(C)NCC(O)COc1ccc(CC(N)=O)cc1 (centres unmarked) [Atenolol, atenolol, reference compound]"
system_name = "β1 (guinea pig atria) (Cavia porcellus, UniProt H0W3H1)"
quantitative_readout = 1700

[[record]]
compound = "CC(CCc1ccccc1)NCC(O)c1ccc(O)c(C(N)=O)c1 (centres unmarked) [Labetalol, labetalol, reference compound]"
system_name = "β1 (guinea pig atria) (Cavia porcellus, UniProt H0W3H1)"
quantitative_readout = 210


###

Target: β1 receptors
Experiment: Inhibition of 3H-DHA (dihydroalprenolol) binding to β1 receptors
Details: read-out: IC50 β1 (inhibition of H^3-DHA binding); [3H]dihydroalprenolol binding, β1
property: IC50

[[record]]
molecule = "N#Cc1ccccc1OCC(O)CNCCN1C(=O)CN(c2ccccc2)C1=O (centres unmarked) [Ic]"
result = "6.7 nM"

[[record]]
molecule = "COc1ccc(N2CC(=O)N(CCNCC(O)COc3ccccc3C#N)C2=O)cc1OC (centres unmarked) [Ii]"
result = "9.2 nM"

